biological target: human GPR40 (Homo sapiens, UniProt O14842); construct: expressed in transfected cells; assay: Inositol Phosphate Turnover (IP1) Assay; format: cell-based; settings: HEK cells stably expressing human GPR40, 7500 cells per well, CisBio IP-One kit
Sequence (O14842 whole entry): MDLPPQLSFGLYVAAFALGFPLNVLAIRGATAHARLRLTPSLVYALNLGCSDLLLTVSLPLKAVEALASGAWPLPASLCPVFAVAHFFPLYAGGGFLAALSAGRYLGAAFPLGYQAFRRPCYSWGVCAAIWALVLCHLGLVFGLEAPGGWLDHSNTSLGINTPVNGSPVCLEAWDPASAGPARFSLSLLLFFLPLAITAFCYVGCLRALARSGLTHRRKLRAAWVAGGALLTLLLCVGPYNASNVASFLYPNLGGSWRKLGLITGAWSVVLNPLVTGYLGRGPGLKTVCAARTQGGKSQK
This listing pairs compounds with measured EC50.

Solved cases below.
>>> observed("C[C@H](C(=O)O)[C@H](c1ccc2c(c1)OC(C1[C@@H]3CC[C@@H]1CN([C@@H](C)c1cc(F)ccc1C(F)(F)F)C3)CC2)C1CC1 (single isomer, unassigned) [Example 31]")
"32.6 nM"
>>> observed("C[C@H](C(=O)O)[C@H](c1ccc2c(c1)OC(C1C3COCC1CN([C@@H](C)c1cc(C(F)(F)F)ccc1C(F)(F)F)C3)CC2)C1CC1 (some centres unmarked) [Example 6]")
"21.5 nM"
>>> observed("C[C@H](C(=O)O)[C@H](c1ccc2c(c1)OC(C1C[C@@H]3C[C@@H]1CN3[C@@H](C)c1cc(C(F)(F)F)ccc1C(F)(F)F)CC2)C1CC1 (some centres unmarked)")
"1.28 nM"
>>> observed("CC(c1cc(Cl)ccc1C(F)(F)F)N1C[C@H]2CC1CC2C1CCc2ccc([C@H](C3CC3)[C@H](C)C(=O)O)cc2O1 (single isomer, unassigned)")
"12.3 nM"

Exam item: Look up EC50 for this compound: C[C@H](C(=O)O)[C@H](c1ccc2c(c1)OC(C1[C@@H]3CC[C@H]1CN([C@H](C)c1cc(C(F)(F)F)ccc1C(F)(F)F)C3)CC2)C1CC1 (mixture of isomers) [Example 23]
Marked response: 49.8 nM
